target: human GPC3 (Glypican-3) (human, UniProt P51654 25-580); assay: cell-based or functional assay
Sequence (P51654 25-580, form in doubt): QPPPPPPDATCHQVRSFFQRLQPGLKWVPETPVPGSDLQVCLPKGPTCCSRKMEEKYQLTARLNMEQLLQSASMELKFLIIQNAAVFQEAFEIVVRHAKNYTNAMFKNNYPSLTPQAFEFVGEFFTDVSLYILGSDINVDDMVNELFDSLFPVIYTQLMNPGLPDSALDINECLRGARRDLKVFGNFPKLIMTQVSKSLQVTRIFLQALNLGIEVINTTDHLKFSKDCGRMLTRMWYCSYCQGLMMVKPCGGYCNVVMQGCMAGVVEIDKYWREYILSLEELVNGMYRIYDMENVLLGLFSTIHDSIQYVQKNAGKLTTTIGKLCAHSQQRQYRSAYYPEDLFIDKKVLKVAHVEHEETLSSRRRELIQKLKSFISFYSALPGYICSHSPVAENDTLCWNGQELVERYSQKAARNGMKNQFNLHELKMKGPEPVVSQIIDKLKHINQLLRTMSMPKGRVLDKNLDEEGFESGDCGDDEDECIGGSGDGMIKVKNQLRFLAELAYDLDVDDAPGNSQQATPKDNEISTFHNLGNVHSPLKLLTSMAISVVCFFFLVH
readout label: Percentage reduction of GPC3 on cell surface (%), Huh7 cells, 1 h
Answer format: numeric, % implied, no suffix.

• Hu 52H5D3B8-8-mc-AAN-Exatecan (ADC-1) (antibody, human IgG1, kappa, DAR 8.0, V domains shown, mc-AAN-Exatecan on cysteine thiols freed by reduction of interchain disulfide bonds; DAR 8.0 for the whole antibody; positions not given, also called Hu 52H5D3B8-8-MC-AAN-Exa (ADC-1)) VH: EVQLVQSGAEVKKPGASVKVSCKASGYTFTDYEMHWVRQAPGQGLEWMGAIHPGSGGTAYNQKFKGRVTMTADKSISTAYMELSRLRSDDTAVYYCTRFYSYAYWGQGTLVTVSS VL: DVVMTQTPLSLSVTPGQPASISCRSSQSLVHSNGNTYLQWYLQKPGQSPQLLIYKVSNRFSGVPDRFSGSGSGTDFTLKISRVEAEDVGVYFCSQSIHVPYTFGGGTKVEIKR = 32.9
• Hu 52H5D3B8-8-mc-AAQ-Exatecan (ADC-3) (antibody, human IgG1, kappa, DAR 8.0, V domains shown, mc-AAQ-Exatecan on cysteine thiols freed by reduction of interchain disulfide bonds; DAR 8.0 for the whole antibody; positions not given, also called Hu 52H5D3B8-8-MC-AAQ-Exa (ADC-3)) VH: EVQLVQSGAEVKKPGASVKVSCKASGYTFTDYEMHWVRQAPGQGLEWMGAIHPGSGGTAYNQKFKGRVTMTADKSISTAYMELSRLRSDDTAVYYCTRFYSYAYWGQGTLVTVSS VL: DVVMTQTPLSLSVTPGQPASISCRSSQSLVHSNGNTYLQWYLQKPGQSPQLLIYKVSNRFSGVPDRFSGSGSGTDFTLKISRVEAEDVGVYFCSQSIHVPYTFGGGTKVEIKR = 32.8
• Hu 52H5D3B8-8-mcc-AAN-Exatecan (ADC-2) (antibody, human IgG1, kappa, DAR 8.0, V domains shown, mcc-AAN-Exatecan on cysteine thiols freed by reduction of interchain disulfide bonds; DAR 8.0 for the whole antibody; positions not given, also called Hu 52H5D3B8-8-MCC-AAN-Exa (ADC-2)) VH: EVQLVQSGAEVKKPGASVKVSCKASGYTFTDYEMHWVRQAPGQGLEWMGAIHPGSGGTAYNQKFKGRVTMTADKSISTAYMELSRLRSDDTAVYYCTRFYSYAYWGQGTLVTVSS VL: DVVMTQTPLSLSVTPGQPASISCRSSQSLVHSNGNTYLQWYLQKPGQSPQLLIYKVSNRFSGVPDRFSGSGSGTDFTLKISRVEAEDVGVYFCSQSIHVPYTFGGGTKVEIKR = 38.2
• Hu 52H5D3B8-8 (antibody, human IgG1, kappa, V domains shown, also called humanized GPC3 antibody Hu 52H5D3B8-8; GPC3 antibody) VH: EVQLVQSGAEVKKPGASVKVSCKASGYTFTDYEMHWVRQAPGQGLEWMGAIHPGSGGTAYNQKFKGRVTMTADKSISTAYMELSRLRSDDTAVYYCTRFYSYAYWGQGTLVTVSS VL: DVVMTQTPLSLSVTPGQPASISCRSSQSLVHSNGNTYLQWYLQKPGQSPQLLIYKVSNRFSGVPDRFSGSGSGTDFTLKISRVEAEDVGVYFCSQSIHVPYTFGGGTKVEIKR = 37.1

We next turn to a different binder, shown below.
Answer with the recorded Percentage reduction of GPC3 on cell surface (%), Huh7 cells, 1 h for the binder listed here: Hu 52H5D3B8-8-mcc-AAQ-Exatecan (ADC-4) (antibody, human IgG1, kappa, DAR 8.0, V domains shown, mcc-AAQ-Exatecan on cysteine thiols freed by reduction of interchain disulfide bonds; DAR 8.0 for the whole antibody; positions not given, also called Hu 52H5D3B8-8-MCC-AAQ-Exa (ADC-4)) VH: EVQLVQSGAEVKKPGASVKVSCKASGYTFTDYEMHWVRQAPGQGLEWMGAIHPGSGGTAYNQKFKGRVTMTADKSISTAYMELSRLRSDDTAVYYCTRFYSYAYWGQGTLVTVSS VL: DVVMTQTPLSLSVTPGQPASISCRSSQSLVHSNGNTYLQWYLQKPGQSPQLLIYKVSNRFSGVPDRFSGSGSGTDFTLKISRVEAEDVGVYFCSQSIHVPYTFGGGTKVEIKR
36.2
